- assay_summary: Lipophilicity, log P of the compound
- Type: physicochemical
- reported_conditions: octanol/water
Property: logP; scope: individual molecules

1. Cc1ccc(-c2cc3c(ccc4oc5ccccc5c43)o2)cc1 :: 4.53

Any idea what its logP is? The molecule is CCCCCCc1cc2c(ccc3oc4ccccc4c32)o1
4.8

Please do the same for CCCCCc1ccc(-c2cc3c(ccc4oc5ccccc5c43)o2)cc1 as well.
5.78

Please do the same for c1ccc2c(c1)oc1ccc3oc(-c4ccsc4)cc3c12 as well.
3.97

Please do the same for Cc1cccc(-c2cc3c(ccc4oc5ccccc5c43)o2)c1 as well.
4.53

Please do the same for COc1ccc(-c2cc3c(ccc4oc5ccccc5c43)o2)c(C)c1 as well.
4.4

###

Property: logP; scope: individual compounds
- assay_summary: Lipophilicity, log P of the compound
- Type: physicochemical
- reported_conditions: octanol/water
Give the figure only, with no unit attached.

Use the examples below as a reference point.
1) Fc1ccc(-c2cc3c(ccc4oc5ccccc5c43)o2)c(F)c1 :: 4.36
2) c1ccc(-c2cc3c(ccc4oc5ccccc5c43)o2)cc1 :: 4.04
3) FC(F)(F)Oc1ccc(-c2cc3c(ccc4oc5ccccc5c43)o2)cc1 :: 5.57

Any idea what its logP is? The compound is COc1ccc(-c2cc3c(ccc4oc5ccccc5c43)o2)cc1
3.92

###

- assay_summary: Cytotoxicity against HEK293T cells at 50 ug/ml after 72 hrs by MTT assay
- Format: cell-based, HEK-293T
- reported_conditions: human, read-out: INH
measured_quantity: cytotoxicity at 72 h, 50 ug/ml (%)
Could you give me the number in %? Just the number is fine.

Use the examples below as a reference point.
1. c1ccc2c(c1)oc1ccc3oc(-c4ccsc4)cc3c12 :: 23.1
2. FC(F)(F)Oc1ccc(-c2cc3c(ccc4oc5ccccc5c43)o2)cc1 :: 72.1
3. c1ccc(-c2cc3c(ccc4oc5ccccc5c43)o2)cc1 :: 32.1
4. CCCCCCc1cc2c(ccc3oc4ccccc4c32)o1 :: 32.1

Any idea what its cytotoxicity at 72 h, 50 ug/ml is? The compound is Cc1cccc(-c2cc3c(ccc4oc5ccccc5c43)o2)c1
56.8

Please do the same for COc1ccc(-c2cc3c(ccc4oc5ccccc5c43)o2)c(C)c1 as well.
32.1

Please do the same for Cc1ccc(-c2cc3c(ccc4oc5ccccc5c43)o2)cc1 as well.
21.6

Please do the same for COc1ccc(-c2cc3c(ccc4oc5ccccc5c43)o2)cc1 as well.
13.8

Please do the same for Fc1ccc(-c2cc3c(ccc4oc5ccccc5c43)o2)c(F)c1 as well.
34.1
